outcome_measure: melting point (°C)

1. CCCC(=O)Nc1n[nH]c2c(F)c(F)c([N+](=O)[O-])cc12
2. O=C(CN1CCCCC1)Nc1n[nH]c2cc(Cl)ccc12
I'd appreciate it if you could identify which of 1 and 2 has the greater melting point. Write down the label attached to your selection.
1

====

outcome_measure: melting point (°C)

compound	result_value
O=C(Nc1n[nH]c2ccc(NS(=O)(=O)c3cccc(F)c3)cc12)c1ccccc1 [Example 38]	225
CCCC(=O)Nc1n[nH]c2c(F)c(N3CCOCC3)c([N+](=O)[O-])cc12 [Example 112]	250
CCCC(=O)Nc1n[nH]c2c(F)c(N3CCOCC3)c(N)cc12 [Example 113]	180
O=C(CNCc1ccccc1)Nc1n[nH]c2cc(Cl)ccc12 [Example 80]	156
CCCC(=O)Nc1n[nH]c2cc(Br)c(Br)cc12 [Example 70]	250

A. CCCC(=O)Nc1n[nH]c2c(F)c(F)c(Br)cc12
B. CN(C)CCNCC(=O)Nc1n[nH]c2cc(Cl)ccc12 [Example 86]
Between the entries labeled A and B , whose measured melting point is lower? Reply with the label of the item you choose.
B
(B: 104 °C, A: 220 °C)

====

outcome_measure: melting point (°C)

entry_smiles	unit_symbol	melting point
O=C(CN1CCCC1)Nc1n[nH]c2cc(Cl)ccc12	°C	168
CN1CCN(CC(=O)Nc2n[nH]c3cc(Cl)ccc23)CC1	°C	165
CCCC(=O)Nc1n[nH]c2ccc(C(F)(F)F)cc12	°C	230
